- Tested on: NCI-H522 lung
- EXPERIMENT NOTES: NCI tumour cell line growth inhibition, 48 h; in the data active = GI50 below about 0.43 µM; inactive = the rest
Possible outcomes: y = active, n = inactive

[
  {
    "COMPOUND": "CNC(=O)c1c(NC(=O)c2ccc(C(C)C)cc2)sc2c1CCC(=O)C2",
    "GROUP LABEL": "y"
  },
  {
    "COMPOUND": "C[CH2][Sn]([Cl])([CH2]C)[CH2]C",
    "GROUP LABEL": "n"
  },
  {
    "COMPOUND": "CCCCC/C=C\\C/C=C/CCCCCCCCNC(=O)Nc1ccc([N+](=O)[O-])cc1",
    "GROUP LABEL": "n"
  },
  {
    "COMPOUND": "CCC[CH2][Ge]([CH2]CCC)([CH2]CCC)[O]C(=O)C(OC(C)=O)c1ccccc1 (stereo not given)",
    "GROUP LABEL": "y"
  },
  {
    "COMPOUND": "O=C(O)CP(=O)(c1ccccc1)c1ccccc1.O=C(O)CP(=O)(c1ccccc1)c1ccccc1.[Cd]",
    "GROUP LABEL": "y"
  }
]
